- Tested on: A549
- PROTOCOL_DESCRIPTION: Cytotoxicity against human A549 cells incubated for 24 to 48 hrs by MTT assay
- Assay type: functional, cell-based
So I've got a bunch of compounds here, and I need their IC50 values.
Give bare numbers, in µM.

Use the examples below as a reference point.
| COMPOUND | IC50 / µM |
| --- | --- |
| C[n+]1cc2ccccc2c2ccc3ccccc3c21 | 7.3 |
| COc1ccc2c(c[n+](C)c3c4cc5c(cc4ccc23)OCO5)c1OC [CHELERYTHRINE CHLORIDE] | 8 |
| COc1cc2c(c(OC)c1OC)c1ccccc1c[n+]2C | 16.9 |
| C[n+]1cc2ccccc2c2ccccc21 | 35.8 |
| Cc1ccc2c(c1)c1ccccc1c[n+]2C | 18.5 |
| COc1cc(OC)c2c3ccccc3c[n+](C)c2c1.[I-] | 2.1 |

Now for a further compound.
Q: Entry COc1ccc2c(c1)c1ccccc1c[n+]2C : reported IC50 = ?
Ans: 17.6

###

- PROTOCOL_DESCRIPTION: GSH reactivity in TE buffer assessed as remaining concentration of compound incubated 1 to 4 hrs at 37 degreeC by HPLC analysis
- Type: physicochemical
- PROTOCOL_CONDITIONS: TE buffer with GSH, time 1-4 hrs, read-out: Stability
ATTRIBUTE_MEASURED: remaining at 50 µM (%)
Numbers only, in %.

Q: Entry COc1cc(OC)c2c3ccccc3c[n+](C)c2c1.[I-] : reported remaining at 50 µM = ?
Ans: 94

###

- System: HeLa
- PROTOCOL_DESCRIPTION: Cytotoxicity against human HeLa cells incubated for 24 to 48 hrs by MTT assay
- Assay type: functional, cell-based
So I've got a bunch of molecules here, and I need their IC50 values.
Answers are plain numbers, in µM.

Use the examples below as a reference point.
| MOLECULE | IC50 / µM |
| --- | --- |
| COc1cc2c[n+](C)c3c4cc5c(cc4ccc3c2cc1OC)OCO5 [NITIDINE CHLORIDE] | 1.7 |
| C[n+]1cc2ccccc2c2ccccc21 | 28 |
| COc1cc(OC)c2c3ccccc3c[n+](C)c2c1.[I-] | 3.4 |
| COc1cc2c(c(OC)c1OC)c1ccccc1c[n+]2C | 22.5 |

Now for a further molecule.
Q: Entry COc1ccc2c(c[n+](C)c3c4cc5c(cc4ccc23)OCO5)c1OC [CHELERYTHRINE CHLORIDE] : reported IC50 = ?
Ans: 9.6

###

- PROTOCOL_DESCRIPTION: Tmax in Sprague-Dawley rat at 10 mg/kg, po measured up to 24 hrs by LC-MS/MS analysis
- Type: ADME, organism-based
- PROTOCOL_CONDITIONS: in vivo
ATTRIBUTE_MEASURED: Tmax (h)
Numbers only, in h.

Q: Entry COc1cc(OC)c2c3ccccc3c[n+](C)c2c1.[I-] : reported Tmax = ?
Ans: 2

###

- PROTOCOL_DESCRIPTION: Half life in Sprague-Dawley rat at 10 mg/kg, po measured up to 24 hrs by LC-MS/MS analysis
- Format: ADME, organism-based
- PROTOCOL_CONDITIONS: in vivo
ATTRIBUTE_MEASURED: half-life

Q: Entry COc1cc(OC)c2c3ccccc3c[n+](C)c2c1.[I-] : reported half-life = ?
Ans: 2.58 h

###

- PROTOCOL_DESCRIPTION: AUC (0 to 24 hrs) in Sprague-Dawley rat at 10 mg/kg, po measured up to 24 hrs by LC-MS/MS analysis
- Assay type: ADME, organism-based
- PROTOCOL_CONDITIONS: in vivo
ATTRIBUTE_MEASURED: AUC (ng·h/mL)
Give bare numbers, in ng·h/mL.

Q: Entry COc1cc(OC)c2c3ccccc3c[n+](C)c2c1.[I-] : reported AUC = ?
Ans: 1060

###

So I've got a bunch of molecules here, and I need their pIC50 values.
- Test system: HeLa
- PROTOCOL_DESCRIPTION: Cytotoxicity against human HeLa cells incubated for 24 to 48 hrs by MTT assay
- Format: functional, cell-based
pIC50: −log10 of the molar value.

| MOLECULE | SYSTEM | pIC50 |
| --- | --- | --- |
| c1ccc2c(c1)cnc1c3ccccc3ccc21 | HeLa | < 4.30 |
| c1ccc2c(c1)cnc1ccccc12 | HeLa | < 4.30 |
| Fc1ccc2ncc3ccccc3c2c1 | HeLa | < 4.30 |
| C[n+]1cc2ccccc2c2cc(F)ccc21 | HeLa | 4.50 |
| Cc1ccc2c(c1)c1ccccc1c[n+]2C | HeLa | 4.91 |

Report pIC50 for every entry below.
1. COc1cc2ncc3ccccc3c2c(OC)c1OC
2. COc1ccc2c(c1)c1ccccc1c[n+]2C
3. C[n+]1cc2c3c(ccc2c2ccc4cc5c(cc4c21)OCO5)OCO3 [SANGUINARIUM CHLORIDE]
4. CN1Cc2ccccc2-c2ccc3ccccc3c21
5. COc1cc(OC)c2c(c1)ncc1ccccc12
6. Cc1ccc2ncc3ccccc3c2c1
7. COc1ccc2ncc3ccccc3c2c1
8. C[n+]1cc2ccccc2c2ccc3ccccc3c21

Ans:
1. < 4.30
2. 4.71
3. 5.62
4. < 4.30
5. < 4.30
6. < 4.30
7. < 4.30
8. 5.28

###

So I've got a bunch of compounds here, and I need their IC50 values.
- System: A549
- PROTOCOL_DESCRIPTION: Cytotoxicity against human A549 cells incubated for 24 to 48 hrs by MTT assay
- Assay type: functional, cell-based

| COMPOUND | IC50 |
| --- | --- |
| c1ccc2c(c1)cnc1ccccc12 [PHENANTHRIDINE] | > 50 µM |

Report IC50 for every entry below.
1. CN1Cc2ccccc2-c2ccc3ccccc3c21
2. COc1cc2c[n+](C)c3c4cc5c(cc4ccc3c2cc1OC)OCO5 [NITIDINE CHLORIDE]

Ans:
> 50 µM
4 µM

Report IC50 for every entry below.
1. Fc1ccc2ncc3ccccc3c2c1
2. C[n+]1cc2c3c(ccc2c2ccc4cc5c(cc4c21)OCO5)OCO3 [SANGUINARIUM CHLORIDE]
3. c1ccc2c(c1)cnc1c3ccccc3ccc21

Ans:
["> 50 µM", "6.9 µM", "> 50 µM"]
